Data provenance: ChEMBL document CHEMBL1201862

- Test system: Short transient receptor potential channel 4 (Mus musculus)
- Sequence (Q9QUQ5 whole entry): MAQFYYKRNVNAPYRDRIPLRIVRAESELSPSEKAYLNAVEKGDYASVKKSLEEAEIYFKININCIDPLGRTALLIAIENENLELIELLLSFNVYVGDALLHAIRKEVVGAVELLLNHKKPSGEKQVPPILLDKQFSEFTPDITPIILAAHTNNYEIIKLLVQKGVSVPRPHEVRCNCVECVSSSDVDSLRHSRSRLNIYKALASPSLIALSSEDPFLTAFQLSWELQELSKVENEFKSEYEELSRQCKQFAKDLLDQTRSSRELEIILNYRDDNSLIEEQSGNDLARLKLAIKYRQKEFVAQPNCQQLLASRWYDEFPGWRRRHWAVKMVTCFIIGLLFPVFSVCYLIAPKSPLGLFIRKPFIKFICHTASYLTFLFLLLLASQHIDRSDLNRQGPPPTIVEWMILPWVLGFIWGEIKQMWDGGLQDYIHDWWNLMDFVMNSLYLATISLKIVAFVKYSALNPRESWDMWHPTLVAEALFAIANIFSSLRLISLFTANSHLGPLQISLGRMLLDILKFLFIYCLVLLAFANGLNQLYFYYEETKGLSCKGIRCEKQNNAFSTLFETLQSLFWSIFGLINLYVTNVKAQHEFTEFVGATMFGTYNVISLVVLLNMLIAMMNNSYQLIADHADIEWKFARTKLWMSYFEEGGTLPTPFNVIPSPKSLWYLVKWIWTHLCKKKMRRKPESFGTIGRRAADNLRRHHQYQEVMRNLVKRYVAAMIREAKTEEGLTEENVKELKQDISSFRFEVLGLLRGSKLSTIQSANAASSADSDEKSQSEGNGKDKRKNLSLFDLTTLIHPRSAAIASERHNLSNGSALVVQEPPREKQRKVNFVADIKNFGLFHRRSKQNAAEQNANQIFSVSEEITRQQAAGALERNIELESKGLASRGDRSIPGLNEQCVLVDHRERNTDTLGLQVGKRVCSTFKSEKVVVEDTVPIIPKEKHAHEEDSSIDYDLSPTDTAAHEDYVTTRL
- Assay summary: mouse TRPC4 channel activators, dose response, cell-based, HEK293 TRPC4/mu-opioid, Fluo-4 calcium (AID 434937)
- Format: functional
Activity calls are given as the source filed them.
Parameter measured: EC50

{"columns": ["Compound", "Test system", "Parameter measured", "Result"],
 "data": [
  ["Cc1cc(N2CCN(C)CC2)ccc1NC(=O)c1ccc(-c2ccc(Cl)cc2)o1", "Short transient receptor potential channel 4 (Mus musculus)", "EC50", "749 nM (active)"],
  ["Cc1cc(C)n(-c2nc(SCCN(C)C)c3c4c(sc3n2)CCCC4)n1", "Short transient receptor potential channel 4 (Mus musculus)", "EC50", "1880 nM (active)"],
  ["Cc1cccc(NC(S)=NCC(c2ccccc2)N(C)C)c1 (stereo unspecified)", "Short transient receptor potential channel 4 (Mus musculus)", "EC50", "119 nM (active)"],
  ["O=C(CCCCn1c(=O)[nH]c2ccccc2c1=O)NC1CCN(Cc2ccccc2)CC1", "Short transient receptor potential channel 4 (Mus musculus)", "EC50", "376 nM (active)"],
  ["Cc1ccccc1Nc1nc(NCc2ccco2)c2ccccc2n1", "Short transient receptor potential channel 4 (Mus musculus)", "EC50", "5960 nM (active)"],
  ["CN1CCN(c2ccc([N+](=O)[O-])c3cccnc23)CC1", "Short transient receptor potential channel 4 (Mus musculus)", "EC50", "4 nM (active)"],
  ["CN(C)CCCN(C(=O)c1ccc(S(=O)(=O)N2CCCCCC2)cc1)c1nc2c(F)cc(F)cc2s1", "Short transient receptor potential channel 4 (Mus musculus)", "EC50", "5310 nM (active)"],
  ["COC(=O)c1ccccc1N=Nc1c(O)n[nH]c1N", "Short transient receptor potential channel 4 (Mus musculus)", "EC50", "2990 nM (active)"],
  ["Cn1c(N2CCN(C(=O)Nc3ccc(C(F)(F)F)cc3)CC2)nc2ccccc21", "Short transient receptor potential channel 4 (Mus musculus)", "EC50", "3350 nM (active)"],
  ["O=C(c1c(F)cccc1F)N1CCN(c2ncc(Br)cn2)CC1", "Short transient receptor potential channel 4 (Mus musculus)", "EC50", "596 nM (active)"],
  ["COc1c2c(cc3c1C(CC(O)Cc1ccccc1)N(C)CC3)OCO2 (stereo unspecified)", "Short transient receptor potential channel 4 (Mus musculus)", "EC50", "2990 nM (active)"]
]}

###

- Test system: Rac GTPase-activating protein 1 (Homo sapiens, UniProt Q9H0H5)
- Sequence (Q9H0H5 whole entry): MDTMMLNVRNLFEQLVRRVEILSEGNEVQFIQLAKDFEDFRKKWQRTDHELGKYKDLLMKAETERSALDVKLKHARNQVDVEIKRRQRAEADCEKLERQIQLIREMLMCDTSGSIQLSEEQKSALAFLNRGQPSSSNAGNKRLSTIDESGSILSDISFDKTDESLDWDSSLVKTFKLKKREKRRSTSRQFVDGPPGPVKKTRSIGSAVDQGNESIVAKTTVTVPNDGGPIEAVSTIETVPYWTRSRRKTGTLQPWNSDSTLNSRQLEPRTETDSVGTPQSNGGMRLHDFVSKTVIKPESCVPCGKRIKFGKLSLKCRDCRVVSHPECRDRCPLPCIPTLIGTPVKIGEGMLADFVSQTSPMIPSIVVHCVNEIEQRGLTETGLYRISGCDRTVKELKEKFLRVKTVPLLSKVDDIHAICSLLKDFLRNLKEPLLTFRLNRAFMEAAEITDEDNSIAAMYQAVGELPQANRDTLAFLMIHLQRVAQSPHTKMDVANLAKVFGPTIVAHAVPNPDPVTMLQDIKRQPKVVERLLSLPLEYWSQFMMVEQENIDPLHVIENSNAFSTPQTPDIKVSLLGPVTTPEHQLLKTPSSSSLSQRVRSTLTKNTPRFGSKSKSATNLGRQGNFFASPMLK
- Assay summary: MgcRacGAP GTPase-activating activity inhibitors, confirmation, biochemical, ADP Hunter fluorescence, primary and confirmatory (AID 624330)
- Assay type: functional
Calls of active or inactive are those of the source.

{"columns": ["Compound", "IC50"],
 "data": [
  ["CCOC(=O)N/N=C/c1ccc(N(CC)CC)cc1O", "78.5 µM (active)"],
  ["CCOC(=O)c1cc2c(=Cc3ccc(N(C)C)cc3)c3ccccc3n2[n+]1C", "42.5 µM (active)"],
  ["Cc1cc(C)c(S(=O)(=O)Nc2ccc(N(C)C)cc2)c(C)c1-n1cnnn1", "41.6 µM (active)"],
  ["CN(C)c1ccc(NC(=O)CN2C(=O)c3ccccc3C2=O)cc1", "73.7 µM (active)"],
  ["CC(C)(C)c1cc(Cl)ccc1OCCOCCN1CCCC1", "104 µM (active)"],
  ["COc1cccc(Nc2ccc(N3CCCCC3)cc2)c1OC", "9.65 µM (active)"],
  ["CN(C)c1nc(=NCc2cccs2)ss1", "134 µM (active)"],
  ["COc1ccc(CNCC(=O)Nc2cc(OC)cc(OC)c2)cc1", "123 µM (active)"],
  ["COc1cc(OC)c(OC)cc1CN1CCN(Cc2ccc(SC)cc2)CC1", "66.9 µM (active)"],
  ["N#C/C(=C\\c1ccc(N2CCOCC2)o1)c1ccccc1", "47.1 µM (active)"],
  ["COc1ccc2c(c1)c(C(=O)N/N=C/c1ccc(O)c(O)c1)c(C)n2C", "23.5 µM (active)"],
  ["Cc1cc(C(=O)c2cnc(/N=C/N(C)C)s2)cc(C)c1O", "108 µM (active)"],
  ["C=CCc1ccc(OCCOCCNCCCC)c(OC)c1", "132 µM (active)"],
  ["Cc1ccccc1OCCN1CCCC1", "176 µM (active)"],
  ["CCc1cc(/C(Cc2ccccn2)=N\\O)c(O)cc1O", "31.6 µM (active)"],
  ["CCOc1cc(/C=C2\\SC(N3CCCC(C)C3)=NC2=O)ccc1O (stereo unspecified)", "26.9 µM (active)"]
]}

###

- Test system: Trace amine-associated receptor 1 (Homo sapiens, UniProt Q96RJ0);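 further: inhibition of calcium response to PEA at EC80 in Galpha16 coupled cells measured by Fluo-8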
- Sequence (Q96RJ0 whole entry): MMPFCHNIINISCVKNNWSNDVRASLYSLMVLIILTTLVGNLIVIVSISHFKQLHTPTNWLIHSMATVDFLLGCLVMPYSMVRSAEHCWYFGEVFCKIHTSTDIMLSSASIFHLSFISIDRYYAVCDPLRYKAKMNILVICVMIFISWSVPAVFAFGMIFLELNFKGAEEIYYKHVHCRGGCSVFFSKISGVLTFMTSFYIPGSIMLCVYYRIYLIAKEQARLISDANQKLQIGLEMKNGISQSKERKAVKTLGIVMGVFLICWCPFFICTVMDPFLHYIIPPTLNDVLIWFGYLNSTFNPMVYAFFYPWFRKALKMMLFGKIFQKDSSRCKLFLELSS
- Assay summary: Counterscreen for agonists of the human trace amine associated receptor 1 (hTAAR1): Fluorescence-based cell-based high throughput dose response assay to identify hTAAR1 agonist that also desensitize TAAR1 receptor response.
- Type: functional
Activity calls are given as the source filed them.

{"columns": ["Compound", "IC50"],
 "data": [
  ["COc1ccccc1CCn1cnc(-c2ccccc2OC)c1C(C)C", "3.82 µM (active)"],
  ["CCOc1ccc([N+](=O)[O-])cc1CNCCc1ccccc1", "4.18 µM (active)"],
  ["Clc1ccc(CCNCc2ccncc2)c(Cl)c1", "6.77 µM (active)"],
  ["Oc1cc2c(c(Cl)c1O)CCNCC2c1ccccc1 (centres undefined)", "> 29.9 µM (inactive)"]
]}
